Taken from paper PMC12416549.

- systemName: T1, TNFR1 (Homo sapiens, UniProt P19438)
- T1 chain: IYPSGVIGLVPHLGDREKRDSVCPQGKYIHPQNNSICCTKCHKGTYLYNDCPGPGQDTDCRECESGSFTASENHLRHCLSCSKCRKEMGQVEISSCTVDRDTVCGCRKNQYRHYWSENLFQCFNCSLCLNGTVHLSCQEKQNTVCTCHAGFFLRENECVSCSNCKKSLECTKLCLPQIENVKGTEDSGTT
- assayInfo: yeast display SC50
For each of the binders below, state its apparent Kd (screen).
Field: numeric (nM). Do not append units.

The recorded apparent Kd (screen) for entry L25A (designed binder) SMEEEVEKAAKEYEKKKKEAIEKHAEKLKAKDKEAAERFLKELEEAAKEYAKDEAKTMSEEEAKRRAKKYKEKVLLSELSEEEQKEIKEAEEKLVRTILKYVEEAAK equals 0.593

The recorded apparent Kd (screen) for entry A51K (designed binder) SMEEEVEKAAKEYEKKKKEAIEKHLEKLKAKDKEAAERFLKELEEAAKEYKKDEAKTMSEEEAKRRAKKYKEKVLLSELSEEEQKEIKEAEEKLVRTILKYVEEAAK equals 0.49
